# Tested on: 20-HETE synthase derived from rat kidney microsome
# Protocol: Inhibitory effect of 20-HETE synthase derived from rat kidney microsome
# Assay type: biochemical
# Reported conditions: concentration at which 20-HETE production was inhibited to 50%; SHR rat kidney microsome
pIC50: −log10 of the molar value.
Category key, based on recorded pIC50: group 1 (below 7), group 2 (7 to below 8), group 3 (8 or more)

[[record]]
compound = "CCC(C)Sc1ccc(N/C=N/O)cn1 (stereo not drawn) [Comp. 111]"
answer_label = "group 2"

[[record]]
compound = "O/N=C/Nc1ccc(OCc2ccc(F)cc2)nc1 [Comp. 80]"
answer_label = "group 3"

[[record]]
compound = "O/N=C/Nc1ccc(OCCn2cccc2)nc1 [Comp. 90]"
answer_label = "group 3"

[[record]]
compound = "CC(C)(C)Sc1ccc(N/C=N/O)cn1 [Comp. 117]"
answer_label = "group 1"

[[record]]
compound = "O/N=C/Nc1ccc(OCCCOc2ccccc2)nc1 [Comp. 36]"
answer_label = "group 3"

[[record]]
compound = "O/N=C/Nc1ccc(OCC2CCCCC2)nc1 [Comp. 11]"
answer_label = "group 3"

[[record]]
compound = "O/N=C/Nc1ccc(OCCc2ccsc2)nc1 [Comp. 99]"
answer_label = "group 3"

[[record]]
compound = "CC1(C)OCC(COc2ccc(N/C=N/O)cn2)O1 (stereo not drawn) [Comp. 13]"
answer_label = "group 2"

[[record]]
compound = "CCN(CC)CCOCCOc1ccc(N/C=N/O)cn1 [Comp. 122]"
answer_label = "group 1"

[[record]]
compound = "COc1cccc(COc2ccc(N/C=N/O)cn2)c1OC [Comp. 82]"
answer_label = "group 2"

[[record]]
compound = "COCCOc1ccc(N/C=N/O)cn1 [Comp. 7]"
answer_label = "group 1"

[[record]]
compound = "CN(C)CC(C)(C)COc1ccc(N/C=N/O)cn1 [Comp. 123]"
answer_label = "group 3"

[[record]]
compound = "CCOCCCOc1ccc(N/C=N/O)cn1 [Comp. 59]"
answer_label = "group 3"

[[record]]
compound = "CC/C=C/COc1ccc(N/C=N/O)cn1 [Comp. 47]"
answer_label = "group 2"

[[record]]
compound = "CN(C)CCCCCCOc1ccc(N/C=N/O)cn1 [Comp. 133]"
answer_label = "group 2"

[[record]]
compound = "O/N=C/Nc1ccc(OCC2CCC2)nc1 [Comp. 26]"
answer_label = "group 2"


###

Experimental endpoint: melting point

[[record]]
compound = "CN(C)CCCOc1ccc(N/C=N/O)cn1"
experimental_endpoint = "melting point"
observed = "108 to 112 °C"

[[record]]
compound = "O/N=C/Nc1ccc(OCc2ccccn2)nc1"
experimental_endpoint = "melting point"
observed = "153.5 to 155.5 °C"

[[record]]
compound = "O/N=C/Nc1ccc(OCC2COCO2)nc1 (centres unmarked)"
experimental_endpoint = "melting point"
observed = "186.5 to 187 °C"

[[record]]
compound = "CC/C=C/COc1ccc(N/C=N/O)cn1"
experimental_endpoint = "melting point"
observed = "82 to 84 °C"

[[record]]
compound = "CN(C)CCSc1ccc(N/C=N/O)cn1"
experimental_endpoint = "melting point"
observed = "153.5 to 154.5 °C"

[[record]]
compound = "O/N=C/Nc1ccc(OCCc2ccccn2)nc1"
experimental_endpoint = "melting point"
observed = "128.5 to 130 °C"

[[record]]
compound = "O/N=C/Nc1ccc(OCCc2cccs2)nc1"
experimental_endpoint = "melting point"
observed = "137.5 to 138.5 °C"

[[record]]
compound = "O/N=C/Nc1ccc(SC2CCCC2)nc1"
experimental_endpoint = "melting point"
observed = "153.5 to 154.5 °C"

[[record]]
compound = "CN(C)CCCCCCOc1ccc(N/C=N/O)cn1"
experimental_endpoint = "melting point"
observed = "110 to 111.5 °C"

[[record]]
compound = "CC(C)CCOc1ccc(N/C=N/O)cn1"
experimental_endpoint = "melting point"
observed = "123 to 125 °C"

[[record]]
compound = "CCN(CC)CCC(Oc1ccc(N/C=N/O)cn1)C(F)(F)F (centres unmarked)"
experimental_endpoint = "melting point"
observed = "109 to 111 °C"


Values compiled from patent US6670382B2.
